Can you tell me CC50 for the items I'm about to list?
System: VCaP cells
experimentDescription: Cytotoxicity assessment (Cell-titer-glo cell viability), VCaP
settings: read-out: VCaP (CC50); VCaP cells, 6 days of treatment, Cell-titer-glo, vs DMSO
Give bare numbers, in nM.

Guide cases for CC50, answers given:
{"compound": "CC1(C)C(NC(=O)c2ccc(-c3cnn(C4CCN(CC5CCN(C(=O)C6CCN(c7ccc8nnn(C9CCC(=O)NC9=O)c(=O)c8c7)CC6)CC5)CC4)c3)nc2)C(C)(C)C1Oc1ccc(C#N)c(Cl)c1 (centres unmarked)", "CC50 / nM": 13}
{"compound": "CC1(C)C(NC(=O)c2ccc(CCN3CCN(CC4CCN(C(=O)CNc5ccc6nnn(C7CCC(=O)NC7=O)c(=O)c6c5)CC4)CC3)cc2)C(C)(C)C1Oc1ccc(C#N)c(Cl)c1 (centres unmarked)", "CC50 / nM": 3.65}
{"compound": "CC1(C)C(NC(=O)c2ccc(N3CC4CN(CC5CCN(C(=O)CNc6ccc7nnn(C8CCC(=O)NC8=O)c(=O)c7c6)CC5)CC4C3)cc2)C(C)(C)C1Oc1ccc(C#N)c(Cl)c1 (centres unmarked)", "CC50 / nM": 63.7}

Next up:
Report CC50 for CC1(C)C(NC(=O)c2ccc(N3CCN(CC4(F)CCN(C(=O)C5CCN(c6ccc7nnn(C8CCC(=O)NC8=O)c(=O)c7c6)CC5)CC4)CC3)cc2)C(C)(C)C1Oc1ccc(C#N)c(Cl)c1 (centres unmarked) please.
34.5

###

Test system: VCaP cells
experimentDescription: Cytotoxicity assessment (Cell-titer-glo cell viability), VCaP
settings: read-out: VCaP (CC50); VCaP cells, 6 days of treatment, Cell-titer-glo, vs DMSO
readout: log10 CC50 (log10 of the value in nM)
Please interpret these as log10 of CC50 where CC50 is in nM.

Guide cases for log10 CC50, answers given:
{"molecule": "CC1(C)C(NC(=O)c2ccc(CCN3CC4CN(C(=O)C5CCN(c6ccc7nnn(C8CCC(=O)NC8=O)c(=O)c7c6)CC5)CC4C3)cc2)C(C)(C)C1Oc1ccc(C#N)c(Cl)c1 (stereo not shown)", "recordedResult": 1.35}
{"molecule": "CC1(C)C(NC(=O)c2cnc(N3CCN(CC4CCN(c5ccc6nnn(C7CCC(=O)NC7=O)c(=O)c6c5)CC4)CC3)cn2)C(C)(C)C1Oc1ccc(C#N)c(Cl)c1 (stereo not shown)", "recordedResult": 2.30}

Required: log10 CC50, one value per molecule below.
1. CC1(C)C(NC(=O)c2ccc(C#CC3CCN(CC4CCN(C(=O)C5CCN(c6ccc7nnn(C8CCC(=O)NC8=O)c(=O)c7c6)CC5)CC4)CC3)cc2)C(C)(C)C1Oc1ccc(C#N)c(Cl)c1 (stereo not shown)
2. CC1(C)[C@H](NC(=O)c2ccc(N3CC4CN(CC5CCN(C(=O)C6CN(c7ccc8nnn(C9CCC(=O)NC9=O)c(=O)c8c7)C6)CC5)CC4C3)cc2)C(C)(C)[C@H]1Oc1ccc(C#N)c(Cl)c1 (stereo partly shown)
3. CC1(C)C(NC(=O)c2ccc(C#CCC3CCN(CC4CCN(c5ccc6nnn(C7CCC(=O)NC7=O)c(=O)c6c5)CC4)CC3)nc2)C(C)(C)C1Oc1ccc(C#N)c(Cl)c1 (stereo not shown)
4. CC1(C)[C@H](NC(=O)c2ccc(N3CCN(C4CC5(CCN(C(=O)C6CCN(c7ccc8nnn(C9CCC(=O)NC9=O)c(=O)c8c7)CC6)CC5)C4)CC3)cc2)C(C)(C)[C@H]1Oc1ccc(C#N)c(Cl)c1 (stereo partly shown)
5. CC1(C)C(NC(=O)c2ccc(C#CC3CCN(CC4CCN(C(=O)C5CN(c6ccc7nnn(C8CCC(=O)NC8=O)c(=O)c7c6)C5)CC4)CC3)cc2)C(C)(C)C1Oc1ccc(C#N)c(Cl)c1 (stereo not shown)
6. CC1(C)C(NC(=O)c2ccc(N3CCN(Cc4cn(C5CCN(c6ccc7nnn(C8CCC(=O)NC8=O)c(=O)c7c6)CC5)nn4)CC3)cc2)C(C)(C)C1Oc1ccc(C#N)c(Cl)c1 (stereo not shown)

1. 0.32
2. 1.48
3. 1.29
4. 1.73
5. 0.90
6. 1.90

###

measuredOn: Androgen receptor (AR) (Homo sapiens, UniProt P10275, T878A)
Construct: 5.5×10^5 LNCap cells were injected into each well of a 6-well plate; endogenous in cells; host or cells: LNCaP
Sequence (P10275 whole entry T878A): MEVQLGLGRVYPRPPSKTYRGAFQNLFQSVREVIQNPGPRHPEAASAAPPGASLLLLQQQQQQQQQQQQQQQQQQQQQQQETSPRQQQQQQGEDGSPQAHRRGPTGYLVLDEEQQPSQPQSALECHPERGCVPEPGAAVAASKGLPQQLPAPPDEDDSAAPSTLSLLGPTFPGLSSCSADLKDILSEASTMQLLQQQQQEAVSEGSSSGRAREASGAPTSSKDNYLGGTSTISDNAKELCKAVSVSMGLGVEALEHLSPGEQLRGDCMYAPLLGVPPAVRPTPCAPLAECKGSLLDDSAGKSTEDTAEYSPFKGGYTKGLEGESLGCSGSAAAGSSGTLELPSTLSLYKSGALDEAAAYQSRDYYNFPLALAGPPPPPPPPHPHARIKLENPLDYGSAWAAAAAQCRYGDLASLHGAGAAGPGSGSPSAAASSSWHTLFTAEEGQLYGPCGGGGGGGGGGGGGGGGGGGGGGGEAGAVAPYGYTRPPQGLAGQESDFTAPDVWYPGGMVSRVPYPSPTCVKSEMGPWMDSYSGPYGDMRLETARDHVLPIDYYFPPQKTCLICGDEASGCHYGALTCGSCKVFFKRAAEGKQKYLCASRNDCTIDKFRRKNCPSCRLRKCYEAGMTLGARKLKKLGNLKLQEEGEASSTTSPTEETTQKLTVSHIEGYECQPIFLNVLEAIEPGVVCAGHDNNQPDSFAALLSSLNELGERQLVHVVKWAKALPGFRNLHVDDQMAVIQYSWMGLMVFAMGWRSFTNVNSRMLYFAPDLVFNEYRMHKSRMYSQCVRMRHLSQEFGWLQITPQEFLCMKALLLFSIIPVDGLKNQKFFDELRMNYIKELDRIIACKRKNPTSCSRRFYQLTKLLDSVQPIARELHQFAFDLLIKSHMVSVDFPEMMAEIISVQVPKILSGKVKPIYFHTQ
experimentDescription: Assessment of AR proteolytic activity (Western blotting of LNCap cell lysates)
Format: cell-based
settings: 24 hours of treatment, Western blotting quantified with Image J
readout: Degradation (1 μM treated in LNCaP, % AR remaining) (%)
Numbers only, in %.

{"compound": "CC1(C)[C@H](NC(=O)c2ccc(N3CCN(CCCC4CCN(c5ccc6nnn(C7CCC(=O)NC7=O)c(=O)c6c5)CC4)CC3)cc2)C(C)(C)[C@H]1Oc1ccc(C#N)c(Cl)c1 (some centres unmarked) [Example 48]", "unitSymbol": "%", "recordedResult": 35.2}
{"compound": "CC1(C)[C@H](NC(=O)c2ccc(N3CCN(C4CC5(CCN(C(=O)C6CCN(c7ccc8nnn(C9CCC(=O)NC9=O)c(=O)c8c7)CC6)CC5)C4)CC3)cc2)C(C)(C)[C@H]1Oc1ccc(C#N)c(Cl)c1 (some centres unmarked) [Example 20]", "unitSymbol": "%", "recordedResult": 26}
{"compound": "CC1(C)C(NC(=O)c2ccc(N3CC[C@H](CN4CCN(C5CCN(c6ccc7nnn(C8CCC(=O)NC8=O)c(=O)c7c6)CC5)CC4)C3)nc2)C(C)(C)C1Oc1ccc(C#N)c(Cl)c1 (some centres unmarked) [Example 192]", "unitSymbol": "%", "recordedResult": 22}
{"compound": "CC1(C)C(NC(=O)c2ccc(N3CCC4(CC3)CN(CC3CCN(c5ccc6nnn(C7CCC(=O)NC7=O)c(=O)c6c5)CC3)C4)nc2)C(C)(C)C1Oc1ccc(C#N)c(Cl)c1 (centres unmarked) [Example 174]", "unitSymbol": "%", "recordedResult": 15}

Next up:
Report Degradation (1 μM treated in LNCaP, % AR remaining) for CC1(C)C(NC(=O)c2ccc(N3CCN(CC4(F)CCN(C(=O)C5CCN(c6ccc7nnn(C8CCC(=O)NC8=O)c(=O)c7c6)CC5)CC4)CC3)cc2)C(C)(C)C1Oc1ccc(C#N)c(Cl)c1 (centres unmarked) [Example 62] please.
15

###

Test system: VCaP cells
Please assign f whenever CC50 is at or above 0.04 µM, and t whenever it is below.

Examples with answers:
{"compound": "CC1(C)[C@H](NC(=O)c2ccc(N3CCN(CCC4CCN(C(=O)C5CN(c6ccc7nnn(C8CCC(=O)NC8=O)c(=O)c7c6)C5)CC4)CC3)cc2)C(C)(C)[C@H]1Oc1ccc(C#N)c(Cl)c1 (some centres unmarked)", "label": "t"}
{"compound": "CC1(C)[C@H](NC(=O)c2ccc(N3CCN(CC4CCN(CC5CN(c6ccc7nnn(C8CCC(=O)NC8=O)c(=O)c7c6)C5)CC4)CC3)cc2)C(C)(C)[C@H]1Oc1ccc(C#N)c(Cl)c1 (some centres unmarked)", "label": "f"}
{"compound": "CC1(C)C(NC(=O)c2ccc(C#CCC3CCN(C(=O)C4CN(c5ccc6nnn(C7CCC(=O)NC7=O)c(=O)c6c5)C4)CC3)cc2)C(C)(C)C1Oc1ccc(C#N)c(Cl)c1 (centres unmarked)", "label": "t"}
{"compound": "CC1(C)C(NC(=O)c2ccc(N3CCN(C=C4CCN(c5ccc6nnn(C7CCC(=O)NC7=O)c(=O)c6c5)CC4)CC3)cc2)C(C)(C)C1Oc1ccc(C#N)c(Cl)c1 (centres unmarked)", "label": "f"}
{"compound": "CC1(C)C(NC(=O)c2ccc(N3CCN(CC4CCN(CC5CCN(c6ccc7nnn(C8CCC(=O)NC8=O)c(=O)c7c6)CC5)CC4)CC3)cc2)C(C)(C)C1Oc1ccc(C#N)c(Cl)c1 (centres unmarked)", "label": "f"}

In the record for CC1(C)C(NC(=O)c2ccc(N3CCN(CCCOC4CCN(C(=O)COc5ccc6nnn(C7CCC(=O)NC7=O)c(=O)c6c5)CC4)CC3)cc2)C(C)(C)C1Oc1ccc(C#N)c(Cl)c1 (centres unmarked) , is CC50 less than 0.04 µM?
f

Next compound up: CC1(C)[C@H](NC(=O)c2ccc(N3CCN(CCC4CCN(C(=O)CNc5ccc6nnn(C7CCC(=O)NC7=O)c(=O)c6c5)CC4)CC3)cc2)C(C)(C)[C@H]1Oc1ccc(C#N)c(Cl)c1 (some centres unmarked)
f

Next compound up: CC1(C)[C@H](NC(=O)c2ccc(N3CCN(CCC4CCN(C(=O)COc5ccc6nnn(C7CCC(=O)NC7=O)c(=O)c6c5)CC4)CC3)cc2)C(C)(C)[C@H]1Oc1ccc(C#N)c(Cl)c1 (some centres unmarked)
f

Next compound up: CC1(C)[C@H](NC(=O)c2ccc(N3CCN(CCCC4CCN(C(=O)C5CN(c6ccc7nnn(C8CCC(=O)NC8=O)c(=O)c7c6)C5)CC4)CC3)cc2)C(C)(C)[C@H]1Oc1ccc(C#N)c(Cl)c1 (some centres unmarked)
t

Next compound up: CC1(C)C(NC(=O)c2ccc(C#CCC3CCN(c4ccc5nnn(C6CCC(=O)NC6=O)c(=O)c5c4)CC3)cc2)C(C)(C)C1Oc1ccc(C#N)c(Cl)c1 (centres unmarked)
f

Next compound up: CC1(C)[C@H](NC(=O)c2ccc(N3CC4CC3CN4CC3CCN(C(=O)C4CN(c5ccc6nnn(C7CCC(=O)NC7=O)c(=O)c6c5)C4)CC3)cc2)C(C)(C)[C@H]1Oc1ccc(C#N)c(Cl)c1 (some centres unmarked)
f

Next compound up: CC1(C)C(NC(=O)c2ccc(N3CC4CC3CN4CC3CCN(c4ccc5nnn(C6CCC(=O)NC6=O)c(=O)c5c4)CC3)cc2)C(C)(C)C1Oc1ccc(C#N)c(Cl)c1 (centres unmarked)
f

Next compound up: CC1(C)C(NC(=O)c2ccc(C#CCC3CCN(CC4CCN(c5ccc6nnn(C7CCC(=O)NC7=O)c(=O)c6c5)CC4)CC3)cc2)C(C)(C)C1Oc1ccc(C#N)c(Cl)c1 (centres unmarked)
t

Next compound up: CC1(C)C(NC(=O)c2ccc(N3CCN(CCCOC4CCN(c5ccc6nnn(C7CCC(=O)NC7=O)c(=O)c6c5)CC4)CC3)cc2)C(C)(C)C1Oc1ccc(C#N)c(Cl)c1 (centres unmarked)
f

Next compound up: CC1(C)C(NC(=O)c2ccc(N3CCN(CC4CCN(C(=O)CN5CCN(c6ccc7nnn(C8CCC(=O)NC8=O)c(=O)c7c6)CC5)CC4)CC3)cc2)C(C)(C)C1Oc1ccc(C#N)c(Cl)c1 (centres unmarked)
f

Next compound up: CC1(C)C(NC(=O)c2ccc(C3CCN(CCOC4CCN(c5ccc6nnn(C7CCC(=O)NC7=O)c(=O)c6c5)CC4)CC3)cc2)C(C)(C)C1Oc1ccc(C#N)c(Cl)c1 (centres unmarked)
t

Next compound up: CC1(C)C(NC(=O)c2ccc(N3CCN(CCCC4CCN(C(=O)COc5ccc6nnn(C7CCC(=O)NC7=O)c(=O)c6c5)CC4)CC3)cc2)C(C)(C)C1Oc1ccc(C#N)c(Cl)c1 (centres unmarked)
f

Next compound up: CC1(C)C(NC(=O)c2ccc(N3CCN(C=C4CCN(C(=O)C5CN(c6ccc7nnn(C8CCC(=O)NC8=O)c(=O)c7c6)C5)CC4)CC3)cc2)C(C)(C)C1Oc1ccc(C#N)c(Cl)c1 (centres unmarked)
t

Next compound up: CC1(C)C(NC(=O)c2ccc(N3CCN(CC4(O)CCN(C(=O)CNc5ccc6nnn(C7CCC(=O)NC7=O)c(=O)c6c5)CC4)CC3)cc2)C(C)(C)C1Oc1ccc(C#N)c(Cl)c1 (centres unmarked)
t

Next compound up: CC1(C)C(NC(=O)c2ccc(-c3cnn(C4CCN(CC5CCN(c6ccc7nnn(C8CCC(=O)NC8=O)c(=O)c7c6)CC5)CC4)c3)cc2)C(C)(C)C1Oc1ccc(C#N)c(Cl)c1 (centres unmarked)
t
